Would you mind telling me the reported melting point of each entry?

Some solved entries appear below for comparison.
MOLECULE | PARAMETER | RECORDED VALUE
O=C(C=Cc1ccco1)c1cnc2sc3c(n12)CCCCC3 | melting point | 161 to 162 °C
CCOC(=O)c1nc2ccccc2c(=O)n1C | melting point | 48 to 50 °C

Report melting point for every entry below.
1. CNc1nc(-c2cccnc2)nc(NC)c1C(=O)Nc1ccc(C)c(C)c1
2. c1ccc(COc2cccc(-n3cnnn3)c2)cc1
3. CN(Cc1cnn(C)c1)c1ccc(Br)cc1C=O
4. COc1cc(COc2nn(-c3ccccc3)cc2CC2SC(=O)N(C)C2=O)ccc1OCc1nc(-c2ccco2)oc1C (stereo not drawn)
5. Clc1nn(-c2cccnc2)cc1NCC1CC1
6. CC(C)(C)c1cc(CCc2nsc(=O)o2)cc(C(C)(C)C)c1O

Result:
1: 285 to 286 °C; 2: 85 to 86 °C; 3: 80 to 81 °C; 4: 111 to 112 °C; 5: 82 to 83 °C; 6: 82 to 86 °C

FYI, the data here is from a melting point compilation (Tetko et al.; mined from patent text by program, amines drawn as free bases though some values may be those of a salt).
